- PROTOCOL_DETAILS: basal 3T3-L1 adipocyte mitochondrial potential changes, profiling panel, cell-based, JC-1 fluorescence, 3T3-L1 adipocytes, 24 h, 100 nL compound (AID 1168); further: test concentration not given here
- PROTOCOL_CONDITIONS: JC-1 mitochondrial fluorescence, higher = more signal, called active from +8 up or from −8 down
# z-score per entry
Lab note: jot down the number only; don't add units.

Req: I have this compound here, Cc1ccc(S(=O)(=O)N[C@H]2COC(=O)CC=C[C@H](C)COC(=O)N[C@@H](C)C(=O)CC=C[C@@H]2C)cc1 , and I need its recorded z-score.
Resp: 0.946

Req: I have this compound here, O=C1O[C@H](c2ccccc2)[C@H](c2ccccc2)N2[C@H]1[C@@H](C(=O)Nc1nc3ccccc3s1)[C@]1(C(=O)Nc3ccc(C#CC4=CCCCC4)cc31)[C@H]2c1ccccc1OCCO , and I need its recorded z-score.
Resp: -1.06

Req: I have this compound here, O=C1OCCC/C=C\[C@H]2OC34C=CCN(CCN5CCOCC5)C(=O)[C@H]3N(CCCCCO)C(=O)[C@@H]4C12 (stereo not given in full) , and I need its recorded z-score.
Resp: 0.348

Req: I have this compound here, C=C(COC)C(=O)CC[C@H](OC(=O)c1ccccc1-c1ccccc1C(=O)O)c1cccc(OCCO)c1 , and I need its recorded z-score.
Resp: 0.414

Req: I have this compound here, Cc1ccc(S[C@]2(C(=O)O)CC(=O)N(Cc3cc(C(F)(F)F)cc(C(F)(F)F)c3)[C@@H]2c2ccc(CO)cc2I)cc1 , and I need its recorded z-score.
Resp: -0.459

Req: I have this compound here, CC(=O)NCCCC[C@@H]1NC(=O)[C@@H]2C[C@H](C(=O)NCCCCCNC(=O)CS)[C@H](c3ccc(O)cc3)N2C1=O , and I need its recorded z-score.
Resp: 0.985

Req: I have this compound here, CO[C@H]1COC(=O)CC=C[C@@H](C)COC(=O)[C@@H](C)NC(=O)CC=C[C@@H]1C , and I need its recorded z-score.
Resp: 1.87

Req: I have this compound here, C[C@@H]1NC(=O)[C@H](Cc2ccccc2)NC(=O)[C@@]23C(=O)N[C@@H](Cc4ccccc4)C2[C@H](C)[C@@]2(C)O[C@H]2C3/C=C/C/C=C\CNC1=O (stereo not given in full) , and I need its recorded z-score.
Resp: -0.206

Req: I have this compound here, COCCOC(=O)N1C(=O)[C@@]2(c3cc(C#CC4=CCCCC4)ccc31)[C@H](C(=O)NC[C@H](O)c1ccccc1)[C@H]1C(=O)O[C@H](c3ccccc3)[C@H](c3ccccc3)N1[C@@H]2c1ccccc1OCCO , and I need its recorded z-score.
Resp: 2.6

Req: I have this compound here, CCC#CCN(Cc1ccccc1Br)[C@H](/C=C/c1ccccc1)[C@@H](O)Cc1ccccc1 , and I need its recorded z-score.
Resp: -1.44

====

- PROTOCOL_DETAILS: binders of probe aHhip on microarray, primary screen, stem cell growth factor project, biochemical, small-molecule microarray, fluorescence 635/667 (AID 1087);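 further: score merges spot fluorescence at 667nm with spot signal to noise ratio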
- PROTOCOL_CONDITIONS: higher = more signal
Entry flag: Satisfied if composite z-score reaches -0.06; Not satisfied if it does not.

Req: Dear colleague, could you confirm whether CCOC(=O)C[C@H]1[C@H](OC(=O)Cc2ccc3c(c2)OCO3)[C@@H](NC(=O)c2ccc3ccccc3c2)c2cc(OCCCO)ccc2N1C(=O)Cc1ccc(OC)cc1 has composite z-score at or above -0.06?
Resp: Satisfied

Req: Dear colleague, could you confirm whether COC(=O)C(CC#Cc1ccc2c(c1)[C@]1(C(=O)N2)[C@H](C(=O)N2CCCCCCC2)[C@H]2C(=O)O[C@H](c3ccccc3)[C@H](c3ccccc3)N2[C@@H]1c1ccc(O)cc1)C(=O)OC has composite z-score at or above -0.06?
Resp: Not satisfied

====

# composite z-score per entry
- PROTOCOL_DETAILS: binders of probe aFST on microarray, primary screen, stem cell growth factor project, biochemical, small-molecule microarray, fluorescence 635/667 (AID 1086);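 further: score merges 667 nm fluorescence with signal-to-noise of each printed compound spot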
- PROTOCOL_CONDITIONS: higher = more signal
Lab note: jot down the number only; don't add units.

* COC(=O)c1ccc(C#CC(NP(=O)(c2ccccc2)c2ccccc2)c2ccccc2)cc1 (centres undefined) | 1.34

Req: I have this compound here, [N-]=[N+]=NCc1ccccc1C[C@@]1(C(=O)N2CCOCC2)N=C(c2ccc(OCCCO)cc2)O[C@@H]1c1ccccc1N=[N+]=[N-] , and I need its recorded composite z-score.
Resp: 0.889

Req: I have this compound here, COC(=O)C[C@H]1O[C@]2(C(=O)N(C)c3ccccc32)[C@@H](C)[C@@H]1[Si](C)(C)c1ccc(OC)cc1 , and I need its recorded composite z-score.
Resp: 0.673

Req: I have this compound here, CO[C@H]1COC(=O)[C@H](C)COC(=O)[C@H](Cc2ccccc2)NC(=O)CC=C[C@H]1C , and I need its recorded composite z-score.
Resp: 0.0716

====

# composite z-score per entry
- SYSTEM_UNDER_TEST: Epidermal growth factor receptor (Homo sapiens)
- PROTOCOL_DETAILS: EGFR binders on small-molecule microarrays, primary screen, biochemical, small-molecule microarray, 635 nm fluorescence (AID 1104);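 further: score merges 667 nm emission intensity with spot signal to noise over triplicate slides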
- PROTOCOL_CONDITIONS: EGFR binding, higher = more signal

Completed entries (count: 3):
• Cc1ccc(S[C@]2(C(=O)NC3CC3)CC(=O)N(Cc3cc(C(F)(F)F)cc(C(F)(F)F)c3)[C@@H]2c2ccc(CO)cc2)cc1 = 0.196
• C=C(C)[C@@H]1CC=C(C(O)C2C=CC3C(=O)NC(=O)C3N2Nc2ccccn2)CC1 (some centres undefined) = 1.88
• CCCC[C@H]1OB(O)C[C@H]2C1=C(COC)C[C@H]1C(=O)N(Cc3ccccc3)C(=O)[C@H]12 = 0.013

The record that follows has no composite z-score shown yet.
Req: I have this compound here, CO[C@H]1COC(=O)[C@H](C)NC(=O)CC=C[C@@H](C)[C@H](NS(=O)(=O)c2ccc(C)cc2)COC(=O)[C@@H](OCc2ccccc2)C=C[C@@H]1C , and I need its recorded composite z-score.
Resp: 0.286

====

# z-score per entry
- PROTOCOL_DETAILS: FRG1 promoter luciferase signal modulators, primary screen, FRG1 inhibition for FSHD, cell-based, C2C12 myotubes, firefly/Renilla luciferase, luminescence (AID 1084)
- PROTOCOL_CONDITIONS: higher = more signal, called active from +8 up or from −8 down
Lab note: jot down the number only; don't add units.

Completed entries (count: 3):
* COC(=O)c1ccc(C#CC(NP(=O)(c2ccccc2)c2ccccc2)c2ccccc2)cc1 (centres undefined) | -0.131
* COCCCNC(=O)[C@@]1(c2ccc([N+](=O)[O-])cc2)CC(=O)N(C2CCCCC2)[C@@H]1c1ccc(CO)cc1 | -0.912
* C=CC(=O)O[C@@H](Cc1ccccc1)[C@H]1C2C=CCCC=C2CN1Cc1cccc(Cl)c1 (some centres undefined) | -1.44

Req: I have this compound here, CC(C)NC(=O)[C@@]1(Cc2ccccc2I)c2ccccc2C(=O)N(C2CCCCC2)[C@H]1c1ccc(CO)cc1 , and I need its recorded z-score.
Resp: -2.62

====

- SYSTEM_UNDER_TEST: NADPH oxidase 5 (Homo sapiens) (UniProt Q96PH1)
- Sequence (Q96PH1 whole entry, looked up): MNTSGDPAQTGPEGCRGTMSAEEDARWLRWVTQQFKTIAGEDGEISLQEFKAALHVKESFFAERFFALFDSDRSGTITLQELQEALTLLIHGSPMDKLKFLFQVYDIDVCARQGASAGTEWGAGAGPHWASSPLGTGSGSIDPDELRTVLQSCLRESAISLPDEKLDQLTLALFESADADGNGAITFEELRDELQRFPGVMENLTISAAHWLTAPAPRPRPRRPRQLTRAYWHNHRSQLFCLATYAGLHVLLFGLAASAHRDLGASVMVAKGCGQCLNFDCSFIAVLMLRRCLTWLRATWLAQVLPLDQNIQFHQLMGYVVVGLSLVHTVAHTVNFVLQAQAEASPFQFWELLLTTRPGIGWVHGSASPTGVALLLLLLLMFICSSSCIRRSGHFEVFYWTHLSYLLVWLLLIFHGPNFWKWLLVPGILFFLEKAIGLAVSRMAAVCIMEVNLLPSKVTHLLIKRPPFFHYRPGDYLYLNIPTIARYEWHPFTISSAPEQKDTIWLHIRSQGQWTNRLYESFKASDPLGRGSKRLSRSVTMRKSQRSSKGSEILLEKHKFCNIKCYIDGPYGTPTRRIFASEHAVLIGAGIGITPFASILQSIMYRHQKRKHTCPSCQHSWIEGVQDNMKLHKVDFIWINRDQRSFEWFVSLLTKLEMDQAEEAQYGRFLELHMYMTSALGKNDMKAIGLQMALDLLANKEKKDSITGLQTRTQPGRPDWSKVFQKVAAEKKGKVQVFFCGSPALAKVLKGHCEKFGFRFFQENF
- PROTOCOL_DETAILS: NOX5-dependent H2O2 signal modulators, primary screen, NOX inhibitor project, cell-based, HEK293-NOX5, Amplex Red fluorescence (AID 1161)
- PROTOCOL_CONDITIONS: HEK293-NOX5, ionomycin, 45 min, higher = more signal
MEASURED_ENDPOINT: z-score
Lab note: jot down the number only; don't add units.

Completed entries (count: 6):
• COc1cc(CO)cc(I)c1O[C@H]1C=C(C(=O)NCCO)C[C@@H](N(CC2CCCCC2)C(=O)c2cc3ccccc3oc2=O)[C@@H]1O = 0.647
• O=C1O[C@H](c2ccccc2)[C@H](c2ccccc2)N2[C@H]1[C@@H](C(=O)NC[C@H](O)c1ccccc1)[C@]1(C(=O)Nc3ccc(C#CC4(O)CCCCCC4)cc31)[C@H]2c1ccc(OCCO)cc1 = 0.139
• COCCOC(=O)N1C(=O)[C@@]2(c3cc(C#CCCO)ccc31)[C@H](c1ccc(OCCO)cc1)N1[C@H](c3ccccc3)[C@H](c3ccccc3)OC(=O)[C@H]1[C@@H]2C(=O)NC[C@H](O)c1ccccc1 = 0.419
• CCCC=C(CCC)[C@@H](NC(=O)c1ccccc1)c1ccccc1 = 0.895
• COCCOC(=O)N1C(=O)[C@@]2(c3cc(C#CCNC(N)=O)ccc31)[C@H](c1ccccc1OCCO)N1[C@H](c3ccccc3)[C@H](c3ccccc3)OC(=O)[C@H]1[C@@H]2C(=O)NC[C@H](O)c1ccccc1 = 0.219
• CCOC(=O)C1=CC[C@@H](c2ccc(-c3ccc(OCc4ccccc4)cc3)c(OC)c2)N(S(=O)(=O)c2ccc(C)cc2)[C@H]1c1ccccc1 = 0.429

Req: What is its z-score for NADPH oxidase 5 (Homo sapiens) (UniProt Q96PH1)? Entry: CO[C@H]1COC(=O)CC=C[C@H](C)[C@@H](OC)COC(=O)[C@H](Cc2ccccc2)NC(=O)CC=C[C@@H]1C
Resp: 0.404

Req: What is its z-score for NADPH oxidase 5 (Homo sapiens) (UniProt Q96PH1)? Entry: NC(=O)[C@H]1[C@@H]2C(=O)O[C@@H](c3ccccc3)[C@@H](c3ccccc3)N2[C@@H](c2ccc(O)cc2)[C@]12C(=O)Nc1ccc(C#CCCO)cc12
Resp: 0.563

Req: What is its z-score for NADPH oxidase 5 (Homo sapiens) (UniProt Q96PH1)? Entry: CO[C@@H]1COC(=O)[C@H](C)NC(=O)CC=C[C@@H](C)[C@H](OC)COC(=O)[C@H](C)NC(=O)CC=C[C@H]1C
Resp: 0.976

Req: What is its z-score for NADPH oxidase 5 (Homo sapiens) (UniProt Q96PH1)? Entry: Cc1ccc(S(=O)(=O)c2cc3oc2CC[C@@H](CO)NC(=O)N(C)Cc2cn(nn2)C[C@H](Cc2ccccc2)NC3=O)cc1
Resp: 0.648

Req: What is its z-score for NADPH oxidase 5 (Homo sapiens) (UniProt Q96PH1)? Entry: CO[C@H]1COC(=O)CC=C[C@H](C)[C@@H](OC)COC(=O)CC=C[C@@H]1C
Resp: 0.435

Req: What is its z-score for NADPH oxidase 5 (Homo sapiens) (UniProt Q96PH1)? Entry: CCOC(=O)C[C@H]1[C@H](OC(=O)c2ccccc2-c2ccccc2)[C@@H](NC(=O)C2CCCCC2)c2cc(OCCCO)ccc2N1C(=O)c1ccccc1
Resp: -1.64

Req: What is its z-score for NADPH oxidase 5 (Homo sapiens) (UniProt Q96PH1)? Entry: COC(=O)[C@@]1(Cc2ccccc2N=[N+]=[N-])N=C(c2ccc(OCCCO)cc2)O[C@H]1c1ccccc1CN=[N+]=[N-]
Resp: -0.961
